MEASUREMENT_TARGET: T1, canine PD-1 ECD-mFc
T1 chain: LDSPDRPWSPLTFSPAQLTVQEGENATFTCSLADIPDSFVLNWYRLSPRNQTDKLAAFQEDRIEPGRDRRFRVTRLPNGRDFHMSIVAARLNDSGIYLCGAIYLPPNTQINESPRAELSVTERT
PROCEDURE_TEXT: SPR; avid
Please note: Kd exactly at 0.03 nM is FALSE. Only values below 0.03 nM get TRUE.

INSERT INTO assay_data (binder, label_value) VALUES
  ('PMX152 (antibody, V domains shown) VH: EVQLVESGGDLVKPGGSLRLSCVASGFTFSRYYMNWVRQAPGKGPQWVAYINNAGSDRNYVDAVKGRFTISRDNAKNTLYLQMNSLRAEDTAVYYCASEIRGVVVVGHLDYWGQGTLVTVSS VL: SYVLTQLPSKSVTLNQPAHITCGGDNIGSKSVHWYQQKLGQAPVLIIYYDSIRPTGIPERFSGATSGNTATLTISGALAEDEADYYCQVWDSSAKAWVFGEGTQLTVL', 'FALSE'),
  ('PMX151 (antibody, V domains shown) VH: EVQLVESGGDLVKSGGSLRLSCVASGFTFNTYSMNWVRQAPGKGLQWVARIKSSGSSTTYADAVKGRFTVSRDIAKNTLFLQMNSLRAEDTALYYCASEPGARYEIYFVESFFDYWGQGTLVTVSS VL: SYVLTQLPSKSVTLKQPAHITCGGDNIGSKSVHWYQQKLGQAPVLIIYYDSSRPTGIPERFSGANSGNTATLTISGALAEDEADYYCQVWDSSAQAWIFGEGTQLTVL', 'FALSE'),
  ('PMX125 (antibody, V domains shown) VH: EVQLVESGGDLVKPGGSLRLSCVASGFSFSRYHMSWVRQAPGKGLQWVAYIISGGITTSYADAVKGRFTISRDNAKNTLFLQMNSLRAEDTAVYYCATYGSYFFDKWGQGTLVTVSS VL: DIVMTQTPLSLSVSPGETASISCKASQSLLHSDGKSYLNWFRQKPGQSPQRLIYRVSNRDPGVPDRFSGSGSGTDFTLRISRVEADDTGLYYCGQVIQDPTFGAGTKVELK', 'FALSE'),
  ('PMX127 (antibody, V domains shown) VH: EVQLVESGGDLVKPGGSLRLSCVASGFSFSRYHMSWVRQAPGKGLQWVAYIVSGGISTSYADAVKGRFTISRDNAKNTLFLQMNSLRAEDTAVYYCATYGSYFFDTWGQGTLVTVSS VL: DIVMTQTPLSLSVSPGETASIFCKASQSLLHSDGKSYLNWFRQKPGQSPQRLIYRVSNRDPGVPDRFSGSGSGTDFTLRISRVEADDTGLYYCGQVIQDPTFGAGTKVELK', 'TRUE');
